- assayTarget: Factor X (FX) zymogen, active site titrated and DFP/EGR-cmk treated, P00742
- Sequence (P00742 whole entry, looked up): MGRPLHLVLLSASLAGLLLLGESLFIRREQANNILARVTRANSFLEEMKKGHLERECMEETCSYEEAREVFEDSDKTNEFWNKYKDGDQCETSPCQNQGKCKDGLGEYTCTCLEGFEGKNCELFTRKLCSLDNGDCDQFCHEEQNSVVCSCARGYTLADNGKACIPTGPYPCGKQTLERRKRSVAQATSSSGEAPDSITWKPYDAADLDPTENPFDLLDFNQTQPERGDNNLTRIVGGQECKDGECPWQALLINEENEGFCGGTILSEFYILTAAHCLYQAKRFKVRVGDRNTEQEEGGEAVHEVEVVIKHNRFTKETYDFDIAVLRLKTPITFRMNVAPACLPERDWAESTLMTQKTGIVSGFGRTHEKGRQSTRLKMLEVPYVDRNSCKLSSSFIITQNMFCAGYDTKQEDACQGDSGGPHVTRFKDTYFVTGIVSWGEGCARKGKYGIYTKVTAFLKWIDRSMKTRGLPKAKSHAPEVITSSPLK
Each entry below carries its reported % of WT kcat/KM (against recombinant Catalyst Biosciences WT FIXa).
quantityMeasured: % of WT kcat/KM (against recombinant Catalyst Biosciences WT FIXa)

protein	value
FIXa-K228N/R318Y/R338E/T343R/R403E/E410N (activated Factor IX variant, mature FIX numbering) (protein) chain 1: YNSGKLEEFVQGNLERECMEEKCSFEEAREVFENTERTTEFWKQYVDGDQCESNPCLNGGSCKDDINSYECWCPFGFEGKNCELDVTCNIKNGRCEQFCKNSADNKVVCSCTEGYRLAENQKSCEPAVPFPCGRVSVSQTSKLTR chain 2: VVGGEDAKPGQFPWQVVLNGKVDAFCGGSIVNEKWIVTAAHCVETGVNITVVAGEHNIEETEHTEQKRNVIRIIPHHNYNAAINKYNHDIALLELDEPLVLNSYVTPICIADKEYTNIFLKFGSGYVSGWGRVFHKGYSALVLQYLRVPLVDRATCLESTKFRIYNNMFCAGFHEGGRDSCQGDSGGPHVTEVEGTSFLTGIISWGEECAMKGKYGIYTKVSEYVNWIKNKTKLT	593%
FIXa-K228N/K247N/N249S/R318Y/T343R/R403E/E410N (activated Factor IX variant, mature FIX numbering) (protein) chain 1: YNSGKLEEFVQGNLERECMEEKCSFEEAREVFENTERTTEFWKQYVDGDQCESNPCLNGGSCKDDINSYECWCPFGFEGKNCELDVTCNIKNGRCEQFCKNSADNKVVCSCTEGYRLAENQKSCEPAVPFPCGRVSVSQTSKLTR chain 2: VVGGEDAKPGQFPWQVVLNGKVDAFCGGSIVNEKWIVTAAHCVETGVNITVVAGEHNIEETEHTEQNRSVIRIIPHHNYNAAINKYNHDIALLELDEPLVLNSYVTPICIADKEYTNIFLKFGSGYVSGWGRVFHKGYSALVLQYLRVPLVDRATCLRSTKFRIYNNMFCAGFHEGGRDSCQGDSGGPHVTEVEGTSFLTGIISWGEECAMKGKYGIYTKVSEYVNWIKNKTKLT	153%
FIXa-K228N/K247N/N249S/R318Y/R338E/T343R/R403E (activated Factor IX variant, mature FIX numbering) (protein) chain 1: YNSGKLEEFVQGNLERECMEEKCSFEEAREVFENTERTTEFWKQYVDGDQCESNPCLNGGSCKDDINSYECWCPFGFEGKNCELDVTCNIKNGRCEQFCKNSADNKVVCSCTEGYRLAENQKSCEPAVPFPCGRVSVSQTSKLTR chain 2: VVGGEDAKPGQFPWQVVLNGKVDAFCGGSIVNEKWIVTAAHCVETGVNITVVAGEHNIEETEHTEQNRSVIRIIPHHNYNAAINKYNHDIALLELDEPLVLNSYVTPICIADKEYTNIFLKFGSGYVSGWGRVFHKGYSALVLQYLRVPLVDRATCLESTKFRIYNNMFCAGFHEGGRDSCQGDSGGPHVTEVEGTSFLTGIISWGEECAMKGKYGIYTKVSEYVNWIKEKTKLT	636%
